Data provenance: patent US20240270762A1

molecular target: PBP2 from Neisseria gonorrhoeae (FA19) (Neisseria gonorrhoeae); test: Bocillin-FL fluorescence polarization competition binding, N. gonorrhoeae PBP2; settings: fluorescence polarization competition binding assay using Bocillin-FL, read-out: N. gonorrhoeae PBP2 Potency
Sequence (P08149 whole entry): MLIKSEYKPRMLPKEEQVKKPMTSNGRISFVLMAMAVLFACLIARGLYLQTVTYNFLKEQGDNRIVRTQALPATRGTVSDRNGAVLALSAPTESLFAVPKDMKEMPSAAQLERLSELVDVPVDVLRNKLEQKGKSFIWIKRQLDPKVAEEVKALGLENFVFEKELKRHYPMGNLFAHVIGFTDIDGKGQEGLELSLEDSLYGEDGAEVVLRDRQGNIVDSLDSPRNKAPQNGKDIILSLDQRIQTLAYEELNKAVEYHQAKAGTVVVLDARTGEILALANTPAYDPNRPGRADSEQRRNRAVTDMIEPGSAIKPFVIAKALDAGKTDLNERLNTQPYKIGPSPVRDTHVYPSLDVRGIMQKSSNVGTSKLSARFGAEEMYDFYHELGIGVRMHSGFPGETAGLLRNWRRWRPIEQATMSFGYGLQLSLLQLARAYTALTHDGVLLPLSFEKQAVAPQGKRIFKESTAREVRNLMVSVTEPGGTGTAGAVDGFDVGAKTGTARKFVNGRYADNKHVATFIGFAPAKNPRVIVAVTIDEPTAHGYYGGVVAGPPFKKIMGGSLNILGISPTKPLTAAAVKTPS
pEC50: −log10 of the molar value.
READOUT: pEC50

Sample answers from the record:
CCN1CCN(C(=O)NC(C(=O)N[C@H]2Cc3cccc(C(=O)O)c3OB2O)c2ccc(S(=O)(=O)O)cc2)C(=O)C1=O (stereo partly shown)
> 5.00
O=C(O)c1cccc2c1OB(O)[C@@H](NC(=O)C(NC(=O)C1CC1)c1ccc(P(=O)(O)O)cc1)C2 (stereo partly shown)
> 5.00
O=C(O)c1cccc2c1OB(O)[C@@H](NC(=O)[C@@H](NC(=O)N1CCNC1=O)c1ccc(P(=O)(O)O)cc1)C2
4.30 to 5.00

**Q:** What is its pEC50 for PBP2 from Neisseria gonorrhoeae (FA19) (Neisseria gonorrhoeae)? Entry: CC(=O)N1CCC[C@@H]1C(=O)N[C@H](C(=O)N[C@H]1Cc2cccc(C(=O)O)c2OB1O)c1ccc(P(=O)(O)O)cc1
**A:** > 5.00

---

test system: N. gonorrhoeae WHO Q; test: Liquid broth MIC in Fastidious broth; settings: Neisseria gonorrhoeae, read-out: Minimum Inhibitory Concentration (MIC), N. gonorrhoeae WHO Q
As shown below, each of these molecules has a reported MIC value.

Sample answers from the record:
CN1CCC[C@@H]1C(=O)N[C@@H](C(=O)N[C@H]1Cc2cccc(C(=O)O)c2OB1O)c1ccc(P(=O)(O)O)cc1 (racemic) [Example 54]
16 to 32 µg/mL
CC(C)S(=O)(=O)NC(C(=O)N[C@H]1Cc2cccc(C(=O)O)c2OB1O)c1ccc(P(=O)(O)O)cc1 (stereo partly drawn) [Example 60]
16 to 32 µg/mL

Alright, here's another molecule for you.
**Q:** Value lookup for MIC; key = CS(=O)(=O)N1CCN(C(=O)N[C@@H](C(=O)N[C@H]2Cc3ccc(F)c(C(=O)O)c3OB2O)c2ccc(P(=O)(O)O)c(F)c2)C1=O (single isomer, unassigned) [Example 19]
**A:** < 1 µg/mL

---

As shown below, each of these compounds has a reported MIC value.
tested on: K. pneumoniae UMM; test: microbe, parasite or virus in culture; format: cell-based; settings: Klebsiella pneumoniae, read-out: MIC K. pneumoniae UMM

Sample answers from the record:
O=C(O)c1cccc2c1OB(O)[C@@H](NC(=O)[C@@H](NC(=O)N1CCCCC1=O)c1ccc(P(=O)(O)O)cc1)C2
> 128 mg/L
CC(C)C(=O)NC(C(=O)N[C@H]1Cc2cccc(C(=O)O)c2OB1O)c1ccc(P(=O)(O)O)cc1 (stereo partly drawn)
> 128 mg/L

**Q:** What is its MIC for K. pneumoniae UMM? Entry: CS(=O)(=O)N1CCN(C(=O)N[C@@H](C(=O)N[C@H]2Cc3ccc(F)c(C(=O)O)c3OB2O)c2ccc(P(=O)(O)O)c(F)c2)C1=O (single isomer, unassigned)
**A:** > 128 mg/L

**Q:** What is its MIC for K. pneumoniae UMM? Entry: CCN1CCN(C(=O)NC(C(=O)N[C@H]2Cc3cccc(C(=O)O)c3OB2O)c2cc(P(=O)(O)O)ccc2F)C(=O)C1=O (stereo partly drawn)
**A:** 32 to 64 mg/L

**Q:** What is its MIC for K. pneumoniae UMM? Entry: O=C(O)c1cccc2c1OB(O)[C@@H](NC(=O)C(NS(=O)(=O)C1CC1)c1ccc(P(=O)(O)O)cc1)C2 (stereo partly drawn)
**A:** > 128 mg/L

---

As shown below, each of these compounds has a reported MIC value.
test system: N. gonorrhoeae WHO Q; test: Liquid broth MIC in Fastidious broth; conditions: Neisseria gonorrhoeae, read-out: Minimum Inhibitory Concentration, WHO Q

**Q:** Value lookup for MIC; key = O=C(NCCCS(=O)(=O)N1CCN(C(=O)NC(C(=O)N[C@H]2Cc3ccc(F)c(C(=O)O)c3OB2O)c2cc(F)c(O)c(O)c2Cl)C1=O)c1ccncc1 (stereo partly drawn) [Example 272]
**A:** 16 to 32 µg/mL

**Q:** Value lookup for MIC; key = O=C(NCCCN1CCN(C(=O)N[C@@H](C(=O)N[C@H]2Cc3ccc(F)c(C(=O)O)c3OB2O)c2cc(F)c(O)c(O)c2Cl)C(=O)C1=O)c1cccc(O)c1Cl [Example 303]
**A:** > 64 µg/mL

**Q:** Value lookup for MIC; key = O=C(NCCS(=O)(=O)N1CCN(C(=O)N[C@@H](C(=O)N[C@H]2Cc3ccc(F)c(C(=O)O)c3OB2O)c2cc(F)c(O)c(O)c2Cl)C1=O)c1ccc(O)cc1 [Example 287]
**A:** 4 to 8 µg/mL

**Q:** Value lookup for MIC; key = O=C(NCCCN1CCN(C(=O)NC(C(=O)N[C@H]2Cc3ccc(F)c(C(=O)O)c3OB2O)c2cc(F)c(O)c(O)c2Cl)C1=O)c1nccs1 (stereo partly drawn) [Example 257]
**A:** > 64 µg/mL

**Q:** Value lookup for MIC; key = Cc1cc(C(=O)NCCCN2CCN(C(=O)N[C@@H](C(=O)N[C@H]3Cc4ccc(F)c(C(=O)O)c4OB3O)c3cc(F)c(O)c(O)c3Cl)C(=O)C2=O)ccn1 [Example 298]
**A:** > 64 µg/mL

**Q:** Value lookup for MIC; key = O=C(NCCCN1CCN(C(=O)NC(C(=O)N[C@H]2Cc3ccc(F)c(C(=O)O)c3OB2O)c2cc(F)c(O)c(O)c2Cl)C(=O)C1=O)c1ccc(O)c(F)c1F (stereo partly drawn) [Example 306]
**A:** > 64 µg/mL

**Q:** Value lookup for MIC; key = O=C(NCCS(=O)(=O)N1CCN(C(=O)N[C@H](C(=O)N[C@H]2Cc3ccc(F)c(C(=O)O)c3OB2O)c2cc(F)c(O)c(O)c2Cl)C1=O)c1ccc(O)cc1 [Example 286]
**A:** > 64 µg/mL

**Q:** Value lookup for MIC; key = O=C(NCCN1CCN(C(=O)NC(C(=O)N[C@H]2Cc3ccc(F)c(C(=O)O)c3OB2O)c2cc(F)c(O)c(O)c2Cl)C1=O)Nc1ccncc1 (stereo partly drawn) [Example 250]
**A:** > 64 µg/mL

**Q:** Value lookup for MIC; key = O=C(NCCS(=O)(=O)N1CCN(C(=O)NC(C(=O)N[C@H]2Cc3ccc(F)c(C(=O)O)c3OB2O)c2cc(F)c(O)c(O)c2Cl)C1=O)Nc1ccc(O)cc1 (stereo partly drawn) [Example 289]
**A:** 4 to 8 µg/mL

---

As shown below, each of these molecules has a reported MIC value.
tested on: N. gonorrhoeae MS11; test: Liquid broth MIC in Fastidious broth; settings: Neisseria gonorrhoeae, MS11, read-out: Minimum Inhibitory Concentration, MS11

O=C(NCCCN1CCN(C(=O)N[C@H](C(=O)N[C@H]2Cc3ccc(F)c(C(=O)O)c3OB2O)c2cc(F)c(O)c(O)c2Cl)C(=O)C1=O)c1cccc(O)c1Cl
> 64 µg/mL
O=C(NCCN1CCN(C(=O)NC(C(=O)N[C@H]2Cc3ccc(F)c(C(=O)O)c3OB2O)c2cc(F)c(O)c(O)c2Cl)C1=O)c1cccnc1 (stereo partly drawn)
16 to 32 µg/mL
O=C(NCCCN1CCN(C(=O)NC(C(=O)N[C@H]2Cc3ccc(F)c(C(=O)O)c3OB2O)c2cc(F)c(O)c(O)c2Cl)C1=O)c1ccc(O)cc1 (stereo partly drawn)
16 to 32 µg/mL
Cc1cc(C(=O)NCCCN2CCN(C(=O)N[C@@H](C(=O)N[C@H]3Cc4ccc(F)c(C(=O)O)c4OB3O)c3cc(F)c(O)c(O)c3Cl)C(=O)C2=O)ccn1
16 to 32 µg/mL
O=C(NCCCN1CCN(C(=O)N[C@H](C(=O)N[C@H]2Cc3ccc(F)c(C(=O)O)c3OB2O)c2cc(F)c(O)c(O)c2Cl)C(=O)C1=O)c1ccnc(F)c1F
> 64 µg/mL

Alright, here's another molecule for you.
**Q:** What is its MIC for N. gonorrhoeae MS11? Entry: O=C(NCCCS(=O)(=O)N1CCN(C(=O)NC(C(=O)N[C@H]2Cc3ccc(F)c(C(=O)O)c3OB2O)c2cc(F)c(O)c(O)c2Cl)C1=O)c1ccc(O)cc1 (stereo partly drawn)
**A:** 16 to 32 µg/mL

---

test system: A. baumannii 1258916; experiment: microbe, parasite or virus in culture; assay type: cell-based, Acinetobacter baumannii; settings: Acinetobacter baumannii, 1258916, read-out: MIC, A. baumannii 1258916
READOUT: MIC

O=C(O)c1c(F)ccc2c1OB(O)[C@@H](NC(=O)C(NC(=O)N1CCN(C3CCN(S(=O)(=O)c4cccc(O)c4)CC3)C(=O)C1=O)c1cc(F)c(O)c(O)c1Cl)C2 (stereo partly drawn)
< 1 µg/mL
O=C(NCCCS(=O)(=O)N1CCN(C(=O)N[C@@H](C(=O)N[C@H]2Cc3ccc(F)c(C(=O)O)c3OB2O)c2cc(F)c(O)c(O)c2Cl)C1=O)c1cccc(O)c1
< 1 µg/mL
O=C(O)c1c(F)ccc2c1OB(O)[C@@H](NC(=O)[C@H](NC(=O)N1CCN(C3CCN(C(=O)c4c(F)ccc(O)c4Cl)CC3)C1=O)c1cc(F)c(O)c(O)c1Cl)C2 (single isomer, unassigned)
< 1 µg/mL
O=C(O)c1c(F)ccc2c1OB(O)[C@@H](NC(=O)[C@H](NC(=O)N1CCN(Cc3ccc(O)c(O)c3Cl)C(=O)C1=O)c1ccc(P(=O)(O)O)c(F)c1F)C2
< 1 µg/mL
O=C(O)c1c(F)ccc2c1OB(O)[C@@H](NC(=O)C(NC(=O)N1CCN(C3CCN(C(=O)Nc4cccc(O)c4)CC3)C(=O)C1=O)c1cc(F)c(O)c(O)c1Cl)C2 (stereo partly drawn)
< 1 µg/mL

**Q:** Value lookup for MIC; key = O=C(NCCCN1CCN(C(=O)NC(C(=O)N[C@H]2Cc3ccc(F)c(C(=O)O)c3OB2O)c2cc(F)c(O)c(O)c2Cl)C(=O)C1=O)c1c(F)cncc1F (stereo partly drawn)
**A:** 2 to 4 µg/mL

**Q:** Value lookup for MIC; key = O=C(NCCCN1CCN(C(=O)NC(C(=O)N[C@H]2Cc3ccc(F)c(C(=O)O)c3OB2O)c2cc(F)c(O)c(O)c2Cl)C(=O)C1=O)c1cccc(O)c1 (stereo partly drawn)
**A:** < 1 µg/mL
